Reference source for all entries: patent US20210198256A1

Biological target: UniProtKB Q9H8M2
Sequence (Q9H8M2 1-597): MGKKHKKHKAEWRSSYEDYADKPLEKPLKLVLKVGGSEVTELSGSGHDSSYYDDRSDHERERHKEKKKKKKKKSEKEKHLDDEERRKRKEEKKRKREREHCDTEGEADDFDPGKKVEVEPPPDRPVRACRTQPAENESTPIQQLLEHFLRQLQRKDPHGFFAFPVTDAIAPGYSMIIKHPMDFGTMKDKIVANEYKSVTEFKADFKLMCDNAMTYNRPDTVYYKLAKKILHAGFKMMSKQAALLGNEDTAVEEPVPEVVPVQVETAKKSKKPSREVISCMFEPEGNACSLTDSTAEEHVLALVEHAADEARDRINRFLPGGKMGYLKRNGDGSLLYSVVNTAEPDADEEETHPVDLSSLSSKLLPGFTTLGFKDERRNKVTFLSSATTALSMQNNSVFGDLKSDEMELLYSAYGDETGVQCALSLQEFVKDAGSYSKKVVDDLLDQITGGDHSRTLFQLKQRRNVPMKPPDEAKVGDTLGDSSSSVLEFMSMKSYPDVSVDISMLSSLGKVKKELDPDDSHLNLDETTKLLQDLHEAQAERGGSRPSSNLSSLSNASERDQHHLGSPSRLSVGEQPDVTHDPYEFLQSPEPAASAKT
Assay: HiBit Lytic Assay (HiBit DC50, BRD9 degraders of Table 1)
Assay type: cell-based
Details: 11-point half log dose response, NanoLuc signal
observed_property: DC50

Below are worked cases with known answers.
• COc1cc(-c2cn(C)c(=O)c3cnccc23)cc(F)c1CN(C)CC(=O)NCCCCCCCCNc1cccc2c1C(=O)N(C1CCC(=O)NC1=O)C2=O (stereo not drawn) = < 100 nM
• COc1cc(-c2cn(C)c(=O)c3c2ccn3C)cc(OC)c1CN(C)CC(=O)NCCCCCCCCNc1cccc2c1C(=O)N(C1CCC(=O)NC1=O)C2=O (stereo not drawn) = < 100 nM

Need DC50 of COc1cc(-c2cn(C)c(=O)c3[nH]ncc23)cc(OC)c1CNCC(=O)NCCCCCNC(=O)CCc1ccc2c(c1)C(=O)N(C1CCC(=O)NC1=O)C2=O (stereo not drawn) , thanks. < 100 nM

###

test system: SMARTCAR-MTH1-wt-HiBiT (Jurkat.7 cells); experiment: HiBit Lytic Assay (HiBit DC50, MTH1 degraders of Table 2); type: cell-based, human; settings: Jurkat.7 SMARTCAR-MTH1-wt-HiBiT cells, compound treatment time 4 hr, 11-point half log dose response
observed_property: DC50

* NC(=O)c1cnc2ccc(N3CCN(C(=O)CCCCCNC(=O)COc4cccc5c4C(=O)N(C4CCC(=O)NC4=O)C5=O)CC3)cc2c1Nc1ccccc1 (centres unmarked) | < 1 µM

Give DC50 (SMARTCAR-MTH1-wt-HiBiT (Jurkat.7 cells)) of the following compound: CNC(=O)c1cnc2ccc(-c3ccc(C(=O)NCCCCNC(=O)C(C)Nc4cccc5c4C(=O)N(C4CCC(=O)NC4=O)C5=O)cc3)cc2c1Nc1ccccc1 (centres unmarked) < 0.1 µM

Could you do the same for NC(=O)c1cnc2ccc(NCCCCCCCCCCNC(=O)COc3cccc4c3C(=O)N(C3CCC(=O)NC3=O)C4=O)cc2c1Nc1ccccc1 (centres unmarked) , please? < 0.1 µM

Could you do the same for NC(=O)c1cnc2ccc(-c3ccc(C(=O)NCCCNC(=O)CNc4cccc5c4C(=O)N(C4CCC(=O)NC4=O)C5=O)cc3)cc2c1Nc1ccccc1 (centres unmarked) , please? < 0.1 µM

Could you do the same for CC(NC(=O)CCCCNC(=O)CNc1cccc2c1C(=O)N(C1CCC(=O)NC1=O)C2=O)c1ccc(-c2cc3c(Nc4ccccc4)c(C(=O)NC4CC4)cnc3cc2F)cc1F (centres unmarked) , please? < 0.1 µM

Could you do the same for CNc1c(C(=O)NC2CC2)cnc2cc(C(F)(F)F)c(-c3ccc(C(=O)NCCCCn4cc(C(C)Nc5cccc6c5C(=O)N(C5CCC(=O)NC5=O)C6=O)nn4)c(F)c3)cc12 (centres unmarked) , please? < 0.1 µM

Could you do the same for CNC(=O)c1cnc2ccc(-c3ccc(C(=O)NCCCCNC(=O)CN(C)c4cccc5c4C(=O)N(C4CCC(=O)NC4=O)C5=O)cc3)cc2c1Nc1ccccc1 (centres unmarked) [Compound 471] , please? < 0.1 µM

Could you do the same for COc1ccc(CNc2c(C(=O)NC3CC3)cnc3cc(OC)c(-c4ccc(C(=O)NCCCCn5cc(CNc6cccc7c6C(=O)N(C6CCC(=O)NC6=O)C7=O)nn5)nc4)cc23)cc1 (centres unmarked) , please? < 0.1 µM

Could you do the same for CNC(=O)c1cnc2ccc(-c3ccc(C(=O)NCCCNC(=O)CNc4cccc5c4C(=O)N(C4CCC(=O)NC4=O)C5=O)cc3)cc2c1Nc1ccccc1 (centres unmarked) , please? < 0.1 µM

Could you do the same for CNC(=O)c1cnc2ccc(C(=O)NCCCCCCNC(=O)COc3cccc4c3C(=O)N(C3CCC(=O)NC3=O)C4=O)cc2c1Nc1ccccc1 (centres unmarked) , please? < 0.1 µM

Could you do the same for CNC(=O)c1cnc2ccc(-c3ccc(C(=O)NCCCCn4cc(CNc5cccc6c5C(=O)N(C5CCC(=O)NC5=O)C6=O)nn4)cc3)cc2c1Nc1ccccc1 (centres unmarked) , please? < 0.1 µM
